# procedure-summary: Human HepG2 cell viability assay in 384 well format
# Type: toxicity, cell-based
# Set-up: dose 125 nL, time 70.5 hour; concentration not given beside the values
# measurement-context: HepG2 cells, read-out: Inhibition

compound | unit-string | cytotoxicity at 70.5 h
CNC(=O)c1cccnc1N1CCC(OCc2ccccc2)CC1 | % | -19.8
Cc1cnn(CC2CN(Cc3nnc(C4CC4)n3C)CCO2)c1 (configuration not stated) | % | -4.23
O=C(CCn1ncc2c(Cl)cccc21)NCC1CC1 | % | -5.33
CN(C)c1cc(CNC(=O)c2cc(F)ccc2F)ccn1 | % | 0.104
NC(=O)CCn1cc(CNCCCc2ccncc2)c2ccccc21 | % | -3.77
CCn1nc(C(=O)N2CCCC2c2noc(C3CC3)n2)ccc1=O (configuration not stated) | % | 12.1
O=C1NC(c2ccccc2)=N[C@@]12CC[C@@H]1CN(S(=O)(=O)C3CC3)C[C@@H]12 | % | 2.16
CC(C)N(C)Cc1cnc2n1CCN(S(=O)(=O)c1ccccc1)C2 | % | 15.9
CC(C)CC(=O)N1CC[C@H]2N(C)CC[C@@]2(C(=O)Nc2cccnc2)CC1 | % | -9.05
COc1ccccc1-c1cc(C(F)(F)F)c2c(C)nn(CC(=O)O)c2n1 | % | 18.1
Cc1cc(C(=O)N2Cc3ccccc3OC3(CCOCC3)C2)nc(N)n1 | % | -4.81
Cc1ccc(NC2CCN(C(=O)CCC3CCCO3)CC2)nn1 (configuration not stated) | % | -3.33
CN(Cc1cccc(F)c1)C(=O)CN1CCCCC1Cn1cncn1 (configuration not stated) | % | -9.08
CC(=O)N1CCCC2(CN(Cc3ccc(F)cc3)CCO2)C1 (configuration not stated) | % | 2.34
O=C(c1cscn1)N1CCc2ncnc(-c3ccncc3)c2CC1 | % | -2.35
Cc1cc2c(cc1C(=O)N1CCC3(CC(=O)NC3=O)C1)OCCO2 (configuration not stated) | % | 10.6
CC(C)(C(=O)NCCC(=O)O)c1cccc(Br)c1 | % | -12.3
O=C(c1ccoc1)N1CC[C@H]2[C@H]1CCN2S(=O)(=O)C1CC1 | % | 13.5
CCOC1CC2(CCN(Cc3nccn3C)CC2)C1 | % | -0.734
CCOCc1ncn2c1CN(C(=O)Nc1cccc(C)c1)CC2 | % | -6.82
Cc1nc(CN(C)C2CCN(Cc3c(C)noc3C)C2)no1 (configuration not stated) | % | -8.91
COc1cc(F)c(C(=O)NCc2cc(C)on2)c(F)c1 | % | -6.54
O=C(N1CCCC1)N1CCC2(CC1)COCCN(Cc1cccnc1)C2 | % | -4.16
CN1C(=O)C(C)(C)COc2cc(NS(=O)(=O)c3ccccc3)ccc21 | % | 8.64
CCC(=O)c1ccc(OCC(=O)NCC2CC(CC)=NO2)cc1 (configuration not stated) | % | -1.34
COc1ccc(CN2CCC3(CC2)CCN(CCN(C)C)C3=O)cc1 | % | -18
COc1cccc(-c2nc3c([nH]2)CCNC3)c1F | % | -12.1
O=C(c1ccno1)N1CCN2C(=O)N(Cc3ccc(F)cc3)C[C@H]2C1 | % | -8.27
CCc1nc2n(n1)CC(NCc1nc(-c3cccnc3)no1)CC2 (configuration not stated) | % | -10.5
Cc1cc(NC(=O)NCCc2ccc3c(c2)OCCO3)n(C)n1 | % | -4.79
O=C(NCCC(=O)N1CCCC1)C(OC1CCCC1)c1ccccc1 (configuration not stated) | % | 34.3
O=C(c1ccoc1)N1Cc2cnn(CC3CC3)c2C(COCC2CC2)C1 (configuration not stated) | % | 16
CCc1n[nH]c(C(=O)N2CCCC3(CN(C)C(=O)O3)C2)c1C (configuration not stated) | % | -13.7
Cc1ccc([C@@]2(O)CC[C@@H]3CN(S(=O)(=O)c4cn(C)nc4C)C[C@@H]32)cc1 | % | -2.34
Clc1cnccc1N1CCCOCC1 | % | -5.38
Cc1cccc(C)c1OC1CN(Cc2cnn(C)c2)C1 | % | 0.587
COC(=O)[C@]12CNC[C@H]1CN(Cc1nc(C)c[nH]1)C2 | % | 8.04
CCc1noc(CN(C)CCC(=O)Nc2ccc(Cl)cc2)n1 | % | -0.958
CC(C)Cc1ccc(C(=O)Cn2cnnc2[S+](C)[O-])cc1 (configuration not stated) | % | -3.94
CCCc1nc(CN2CCCC2Cn2cccn2)cs1 (configuration not stated) | % | -11.6
CC(C)c1noc(CN(Cc2ccccc2)C2CC2)n1 | % | 0.0143
CCS(=O)(=O)N1CCN(C(C)(C)CO)CC1 | % | -3.71
Cc1ccc(C(=O)N2CCC(n3cc(CN)nn3)CC2)cc1F | % | -5.32
CNS(=O)(=O)c1ccc(CNC(=O)C2CN(C)CCO2)cc1 (configuration not stated) | % | -5.64
Cc1ccccc1C1(C(=O)N2CCOC(C)C2)CCOCC1 (configuration not stated) | % | -5.13
CC(C)(O)CN1CCN(C(=O)c2cnn(-c3ccccc3F)c2)CC1 | % | -4.5
c1cnc(N2CCC3(CC2)CN(CC2CC2)c2ccccc23)nc1 | % | 12.1

----------
# procedure-summary: Human HepG2 cell viability assay in 384 well format
# Type: toxicity, cell-based
# Set-up: dose 125 nL, time 70.5 hour; concentration not given beside the values
# measurement-context: HepG2 cells, read-out: Inhibition
endpoint: cytotoxicity at 70.5 h (%)

compound | endpoint | reported
COCC(=O)NC(C)c1cccc(Br)c1 (centres undefined) | cytotoxicity at 70.5 h | -2.66
Cl.Cl.Clc1cccc(C[C@@H]2NCCC[C@@H]2Nc2ccccc2)c1 | cytotoxicity at 70.5 h | 104
O=C(CC1CC1)N1CCCn2c(nnc2Cn2cccc2)C1 | cytotoxicity at 70.5 h | -4.38
C=C(C)CN(CC)Cc1nc(C2CC2)no1 | cytotoxicity at 70.5 h | -5.54
Cc1ccc(CN2CCC3(CC2)C(c2ccccc2)CC(=O)N3C)o1 (centres undefined) | cytotoxicity at 70.5 h | 0.715
CC(C)c1noc(C(C)N2CCN(Cc3noc(C(C)(C)C)n3)CC2)n1 (centres undefined) | cytotoxicity at 70.5 h | -3.35
Cc1ccc(N2CCCC(N(C)Cc3cc(C)on3)C2)nn1 (centres undefined) | cytotoxicity at 70.5 h | -5.56
CS(=O)(=O)N1CCCC12CCCN(C(=O)c1ccc[nH]1)C2 (centres undefined) | cytotoxicity at 70.5 h | 9.82
N[C@@H](Cc1ccccc1)c1nnc(S(=O)(=O)Cc2ccc(Cl)cc2)o1 | cytotoxicity at 70.5 h | 12.7
NC(=O)c1c(NC(=O)CCCC(=O)O)sc2c1CCc1ccccc1-2 | cytotoxicity at 70.5 h | 10.4
Cc1ccccc1OCCN1CCCC1CS(N)(=O)=O (centres undefined) | cytotoxicity at 70.5 h | 0.0321
COCCc1noc(CN2CCCCC2Cn2cccn2)n1 (centres undefined) | cytotoxicity at 70.5 h | -11.6
Nc1ccc(-c2cnc(C3CCCN3)cn2)cn1 (centres undefined) | cytotoxicity at 70.5 h | -8.2
CCCc1noc(C2CCCCN2C(=O)CCc2cnn(C)c2)n1 (centres undefined) | cytotoxicity at 70.5 h | -0.695
O=C(CN1CCCNC1=O)N1CCCC(c2nccs2)C1 (centres undefined) | cytotoxicity at 70.5 h | -8.65
CN(C)CCCN1CC2(CCN(C3CCCOC3)CC2)OC1=O (centres undefined) | cytotoxicity at 70.5 h | -6.54
CCc1cccc(C)c1NC(=O)C1CC(=O)N(Cc2ccccn2)C1 (centres undefined) | cytotoxicity at 70.5 h | -3.75
C[C@@H]1CN(C2CCOC2)C[C@]12CCN(Cc1cccnc1)C2=O (some centres undefined) | cytotoxicity at 70.5 h | -10.6
Cc1ccc2nc(C3CCCN3Cc3nnc(C)s3)[nH]c2c1 (centres undefined) | cytotoxicity at 70.5 h | 26.6
O=C(Nc1cc(F)ccc1OCC1CCCO1)c1ccoc1 (centres undefined) | cytotoxicity at 70.5 h | -2.66
O=C(CC1CCC2(CC1)CCN(Cc1cccnc1)CC2)N1CC=CC1 | cytotoxicity at 70.5 h | -8.62
Cc1cc(C(F)(F)F)nc(N(C)Cc2c(C)noc2C)n1 | cytotoxicity at 70.5 h | 13.3
CCC(C)Oc1cc(C(=O)Nc2nnc(C(C)C)[nH]2)ccn1 (centres undefined) | cytotoxicity at 70.5 h | 3.52
Cc1cc2c(N3CCC(N(C)Cc4cnn(C)c4)CC3)ncnc2s1 | cytotoxicity at 70.5 h | -3.32
Cc1cc(CNC(=O)NCc2cccs2)ccc1S(C)(=O)=O | cytotoxicity at 70.5 h | -8.79
COCC1CN(S(=O)(=O)c2cccc(F)c2)Cc2nccn2C1 (centres undefined) | cytotoxicity at 70.5 h | -7.05
CC(C)c1noc(CNC2CCCN(Cc3noc(C4CC4)n3)C2)n1 (centres undefined) | cytotoxicity at 70.5 h | -11.4
CS(=O)(=O)Nc1cnn(Cc2cccc(Cl)c2)c1 | cytotoxicity at 70.5 h | -7.33
CS(=O)(=O)N1CCN(C(=O)c2cncs2)CC(C(N)=O)C1 (centres undefined) | cytotoxicity at 70.5 h | -5.12
N#Cc1ccc(N2CCC(c3nc(C(F)(F)F)c[nH]3)CC2)nc1 | cytotoxicity at 70.5 h | -11.5
CCc1nc(CN2CCCN(C(=O)COC)CC2)cs1 | cytotoxicity at 70.5 h | -6.47
Cc1cccc(CNCC2COC3(CCCCC3)O2)c1C (centres undefined) | cytotoxicity at 70.5 h | 34.7
CCOC(C)c1nc(Cn2cc(C(=O)NC)ccc2=O)cs1 (centres undefined) | cytotoxicity at 70.5 h | -4.29
Cc1ccc(-c2cn3c(n2)CO[C@@H](CNCc2nccn2C)C3)cc1 | cytotoxicity at 70.5 h | -5.86
CS(=O)(=O)c1ccccc1-n1cc(NC(=O)CC(F)(F)F)cn1 | cytotoxicity at 70.5 h | -4.54
CN(Cc1ccco1)C(=O)c1ccc(=O)n(C)c1 | cytotoxicity at 70.5 h | -6.1
N#Cc1ccc(C(=O)NCCCNc2ccc(C(F)(F)F)cn2)cc1 | cytotoxicity at 70.5 h | 0.522
CCOC(=O)c1nnc2ccccc2c1N1CCN(CC)CC1 | cytotoxicity at 70.5 h | -7.65
CCN(CC1CCOCC1)C(=O)CCNC(=O)c1ccccc1F | cytotoxicity at 70.5 h | -23.5
Cc1cccc(N2Cc3nc(N4CCC(C)CC4)ncc3C2=O)c1 | cytotoxicity at 70.5 h | -5.12
CCOC(=O)N1CCc2ccccc2C12CCNCC2 | cytotoxicity at 70.5 h | -2.47
CCn1c(CN(C)C)nnc1C1CCN(Cc2cccc(C#N)c2)CC1 | cytotoxicity at 70.5 h | -5.02
O=C1NC2(CCc3ccccc31)CCN(Cc1cccnc1)C2 (centres undefined) | cytotoxicity at 70.5 h | 3.7
Cc1nn(C)c(N(C)C)c1CNC1CCCCNC1=O (centres undefined) | cytotoxicity at 70.5 h | -4.25
CN(Cc1ccoc1)C(=O)CN1C(=O)OC(C)(C)C1=O | cytotoxicity at 70.5 h | -8.72
Cc1nc(C)c(C(=O)N2CCCC(c3cnccn3)C2)s1 (centres undefined) | cytotoxicity at 70.5 h | -2.44
NC(=O)C1CCN(C(=O)c2ccn(-c3cccc(Cl)c3)n2)C1 (centres undefined) | cytotoxicity at 70.5 h | -17.8
N#Cc1cccc(S(=O)(=O)NC(=O)COCC(F)(F)F)c1 | cytotoxicity at 70.5 h | 0.976
Cc1csc(N2CCCN(C(=O)C3(C#N)CCCC3)CC2)n1 | cytotoxicity at 70.5 h | -8.33
